Hello, the source for this data is patent US20240116912A1, in case you need it.

target-or-system: ligand binding domain (LBD) of recombinant human FXR (Homo sapiens (Human))
Sequence (Q96RI1 254-486): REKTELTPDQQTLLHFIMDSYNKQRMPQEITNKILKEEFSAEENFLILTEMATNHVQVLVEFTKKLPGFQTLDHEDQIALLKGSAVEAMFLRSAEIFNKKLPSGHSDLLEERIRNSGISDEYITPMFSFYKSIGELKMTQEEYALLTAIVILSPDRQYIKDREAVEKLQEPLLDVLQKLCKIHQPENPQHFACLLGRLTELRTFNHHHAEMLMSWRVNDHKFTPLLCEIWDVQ
Sequence (Q15788 whole entry partner, the tested form may be a part): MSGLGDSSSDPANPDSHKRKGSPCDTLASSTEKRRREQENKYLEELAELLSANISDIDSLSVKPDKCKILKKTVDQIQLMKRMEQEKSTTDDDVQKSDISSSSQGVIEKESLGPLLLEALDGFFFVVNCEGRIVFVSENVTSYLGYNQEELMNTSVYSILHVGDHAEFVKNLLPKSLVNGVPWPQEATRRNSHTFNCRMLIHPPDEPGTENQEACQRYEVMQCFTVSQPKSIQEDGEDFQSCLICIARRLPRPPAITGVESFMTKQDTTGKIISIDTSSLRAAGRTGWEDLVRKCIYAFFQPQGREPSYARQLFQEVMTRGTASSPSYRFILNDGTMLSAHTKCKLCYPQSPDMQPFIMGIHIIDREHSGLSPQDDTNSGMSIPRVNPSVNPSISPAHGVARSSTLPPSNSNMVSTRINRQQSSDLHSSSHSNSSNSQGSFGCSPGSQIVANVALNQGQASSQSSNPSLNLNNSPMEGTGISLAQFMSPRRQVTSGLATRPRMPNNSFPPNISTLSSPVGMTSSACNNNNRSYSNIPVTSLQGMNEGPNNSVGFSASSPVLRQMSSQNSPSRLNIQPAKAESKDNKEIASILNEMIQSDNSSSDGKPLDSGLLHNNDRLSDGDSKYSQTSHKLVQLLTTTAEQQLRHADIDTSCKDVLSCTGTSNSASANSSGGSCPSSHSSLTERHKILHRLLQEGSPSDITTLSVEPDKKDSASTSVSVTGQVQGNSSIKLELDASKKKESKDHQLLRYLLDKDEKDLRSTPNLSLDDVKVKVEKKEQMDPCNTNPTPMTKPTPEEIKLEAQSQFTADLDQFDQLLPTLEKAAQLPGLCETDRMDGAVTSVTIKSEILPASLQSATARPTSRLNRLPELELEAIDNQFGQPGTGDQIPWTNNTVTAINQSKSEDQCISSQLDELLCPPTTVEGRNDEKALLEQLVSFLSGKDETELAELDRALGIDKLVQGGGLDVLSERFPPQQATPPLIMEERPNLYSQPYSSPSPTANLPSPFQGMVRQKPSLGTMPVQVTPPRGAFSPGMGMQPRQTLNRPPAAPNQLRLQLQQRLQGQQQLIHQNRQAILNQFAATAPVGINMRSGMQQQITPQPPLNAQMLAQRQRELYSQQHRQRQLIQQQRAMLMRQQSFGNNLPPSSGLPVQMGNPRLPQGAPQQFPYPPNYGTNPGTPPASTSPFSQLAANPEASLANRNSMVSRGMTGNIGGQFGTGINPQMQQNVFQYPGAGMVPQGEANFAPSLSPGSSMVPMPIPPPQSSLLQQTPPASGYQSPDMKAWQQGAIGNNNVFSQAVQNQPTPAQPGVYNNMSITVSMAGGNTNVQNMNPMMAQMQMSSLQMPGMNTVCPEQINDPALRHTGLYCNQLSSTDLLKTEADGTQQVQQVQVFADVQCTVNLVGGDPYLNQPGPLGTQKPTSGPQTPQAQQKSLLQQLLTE
experiment-notes: FXR cell free coactivator (SRC-1) recruitment assay, TR-FRET
measurement-context: FXR LBD (amino acids 244-476) with labeled SRC-1 domain, 25° C. for 60 minutes, activity relative to CDCA maximum; read-out: EC50 FXR- Biochemical TR-FRET/μM
Field: EC50. Provide a value for each of the molecules that follow.
Numbers only, in µM.

Examples with their reported EC50 follow.
>  <molecule>
O=c1[nH]c(-c2ccc(N3[C@@H]4CC[C@H]3C[C@@H](OCc3c(-c5ccccc5OC(F)(F)F)noc3C3CC3)C4)cc2)no1

>  <target-or-system>
ligand binding domain (LBD) of recombinant human FXR (Homo sapiens (Human))

>  <EC50 / µM>
0.0032

$$$$
>  <molecule>
O=c1[nH]c(-c2coc(N3CCC(OCc4c(-c5c(Cl)cccc5Cl)noc4C4CC4)CC3)n2)no1

>  <target-or-system>
ligand binding domain (LBD) of recombinant human FXR (Homo sapiens (Human))

>  <EC50 / µM>
0.231

$$$$
>  <molecule>
O=c1[nH]nc(-c2ccc(N3CCC(OCc4c(-c5c(Cl)cccc5Cl)noc4C4CC4)CC3)cc2F)c(=O)[nH]1

>  <target-or-system>
ligand binding domain (LBD) of recombinant human FXR (Homo sapiens (Human))

>  <EC50 / µM>
0.0584

$$$$
>  <molecule>
C[C@@H]1C[C@H](OCc2c(-c3c(Cl)cccc3Cl)noc2C2CC2)CCN1c1ccc(-c2noc(=O)[nH]2)cn1

>  <target-or-system>
ligand binding domain (LBD) of recombinant human FXR (Homo sapiens (Human))

>  <EC50 / µM>
0.0021

$$$$

Please report EC50 for every entry that follows.
1. O=c1cnn(-c2ccc(N3CCC(OCc4c(-c5c(Cl)cccc5Cl)noc4C4CC4)CC3)cc2)c(=O)[nH]1
2. O=c1cc(-c2ccc(N3CCC(OCc4c(-c5ccccc5OC(F)(F)F)noc4C4CC4)CC3)nc2)o[nH]1
3. O=c1[nH]c(-c2n[nH]c(N3CCC(OCc4c(-c5c(Cl)cccc5Cl)noc4C4CC4)CC3)n2)no1

Solution:
1. 6.07
2. 0.104
3. 0.61
